As shown below, each of these molecules has a reported microsomal CLint value.
Test: Metabolic stability in rat liver microsomes
Type: ADME, Microsome
Details: read-out: Stability
MEASUREMENT NAME: microsomal CLint (µL/min/mg)

test_smiles=O=C(N[C@@H]1CCCc2cc(CN3CCCCC3)ccc21)[C@H](O)[C@H](O)CS(=O)(=O)c1ccccc1 observed=50
test_smiles=CO[C@H](CCS(=O)(=O)c1ccc2ccccc2c1)C(=O)N[C@@H]1CCCc2cc(CN3CCCCC3)ccc21 observed=237
test_smiles=Cc1ccc(S(=O)(=O)C[C@@H](O)[C@@H](O)C(=O)N[C@@H]2CCCc3cc(CN4CCCCC4)ccc32)cc1 observed=50
test_smiles=O=C(N[C@@H]1CCCc2cc(CN3CCCCC3)ccc21)[C@H](O)[C@H](O)CS(=O)(=O)c1ccc(C(F)(F)F)cc1 observed=50
